For each of the compounds below, state its IC50.
# study-system: Thyroid hormone receptor beta (Homo sapiens, UniProt P10828)
# Sequence (P10828 whole entry): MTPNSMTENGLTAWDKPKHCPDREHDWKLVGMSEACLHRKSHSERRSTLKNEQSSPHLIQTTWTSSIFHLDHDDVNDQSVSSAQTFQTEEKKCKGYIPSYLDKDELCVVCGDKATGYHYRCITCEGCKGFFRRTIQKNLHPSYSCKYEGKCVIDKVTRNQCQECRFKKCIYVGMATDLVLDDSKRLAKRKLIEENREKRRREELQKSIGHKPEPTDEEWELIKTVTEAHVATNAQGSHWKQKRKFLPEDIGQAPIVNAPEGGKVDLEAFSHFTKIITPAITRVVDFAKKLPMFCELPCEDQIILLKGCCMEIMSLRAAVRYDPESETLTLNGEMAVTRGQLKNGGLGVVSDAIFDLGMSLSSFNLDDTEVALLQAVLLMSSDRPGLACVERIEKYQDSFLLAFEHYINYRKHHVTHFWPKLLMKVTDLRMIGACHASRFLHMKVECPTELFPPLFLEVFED
# assay-protocol: Binding affinity to human TRbeta1
Numbers only, in nM.

[
  {
    "compound": "CC(C)c1cc(Oc2c(Br)cc(CCC(=O)O)cc2Br)cc(/C=C/c2ccncc2)c1O",
    "value": 22
  }
]

Would you kindly look at the next entry?
Request: State measured IC50 of the compound O=C(O)CCc1ccccc1OCC1C(Br)CCCC1Br (configuration not stated) with Thyroid hormone receptor beta (Homo sapiens, UniProt P10828).
Response: 190

---

# study-system: Thyroid hormone receptor alpha (Homo sapiens)
# Sequence (P10827 whole entry): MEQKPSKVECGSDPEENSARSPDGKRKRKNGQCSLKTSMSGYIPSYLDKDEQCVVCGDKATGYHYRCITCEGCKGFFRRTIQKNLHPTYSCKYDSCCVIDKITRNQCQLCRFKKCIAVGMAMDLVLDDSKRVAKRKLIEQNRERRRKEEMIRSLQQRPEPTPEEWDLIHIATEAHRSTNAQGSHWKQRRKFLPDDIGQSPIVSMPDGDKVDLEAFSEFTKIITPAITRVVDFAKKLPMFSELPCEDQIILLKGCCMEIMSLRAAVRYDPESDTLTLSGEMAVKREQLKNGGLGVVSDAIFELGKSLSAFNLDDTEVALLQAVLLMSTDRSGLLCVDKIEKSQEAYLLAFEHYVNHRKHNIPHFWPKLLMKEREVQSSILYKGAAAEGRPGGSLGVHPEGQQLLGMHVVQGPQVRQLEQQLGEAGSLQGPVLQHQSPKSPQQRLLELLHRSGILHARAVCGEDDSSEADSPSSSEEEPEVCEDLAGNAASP
# assay-protocol: Binding affinity to human TRalpha1
measured-endpoint: pIC50
Numbers only, as −log10 of the molar value.

[
  {
    "compound": "CC(C)c1cc(Oc2c(Br)cc(CCC(=O)O)cc2Br)cc(/C=C/c2ccncc2)c1O",
    "pIC50": 7.44
  }
]

Request: Check the records and state pIC50 for O=C(O)CCc1ccccc1OCC1C(Br)CCCC1Br (configuration not stated)
Response: 6.34

---

# study-system: Thyroid hormone receptor alpha (Homo sapiens)
# assay-protocol: Activity at human TR-alpha-1 transfected in CHO K1 cells by alkaline phosphatase reporter gene assay
measured-endpoint: IC50 (nM)
Give bare numbers, in nM.

Request: State measured IC50 of the molecule `CC(C)c1cc(Oc2c(Br)cc(CCC(=O)O)cc2Br)cc(/C=C/c2ccncc2)c1O` with Thyroid hormone receptor alpha (Homo sapiens).
Response: 32

---

# study-system: Thyroid hormone receptor beta (Homo sapiens, UniProt P10828)
# assay-protocol: Activity at human TR-beta-1 transfected in CHO K1 cells by alkaline phosphatase reporter gene assay
measured-endpoint: IC50
Remember to quote the unit after the number.

Request: Check the records and state IC50 for `CC(C)c1cc(Oc2c(Br)cc(CCC(=O)O)cc2Br)cc(/C=C/c2ccncc2)c1O`
Response: 32 nM
